# Tested on: NCI-H2228
# protocol text: relative viability (nuclei count vs DMSO), 5 days (fraction); higher = more cells survive
# condition: first compound 0.03162 µM
Below, each entry is listed alongside its reported relative viability.
Respond with the number and no other words.

Cc1cn(-c2cc(NC(=O)c3ccc(C)c(Nc4nccc(-c5cccnc5)n4)c3)cc(C(F)(F)F)c2)cn1 [Nilotinib] + O=C(CCCCCCC(=O)Nc1ccccc1)NO [Vorinostat] (partner 1 µM); 0.501

Report measured relative viability; entry is Cc1cn(-c2cc(NC(=O)c3ccc(C)c(Nc4nccc(-c5cccnc5)n4)c3)cc(C(F)(F)F)c2)cn1 [Nilotinib] + CC(=O)Nc1cccc(-n2c(=O)n(C3CC3)c(=O)c3c(Nc4ccc(I)cc4F)n(C)c(=O)c(C)c32)c1 [Trametinib] (partner 0.02 µM)
0.255

Respond only with relative viability recorded for Cc1cn(-c2cc(NC(=O)c3ccc(C)c(Nc4nccc(-c5cccnc5)n4)c3)cc(C(F)(F)F)c2)cn1 [Nilotinib] + N=C(N)NC(=N)NCCc1ccccc1 [Phenformin] (partner 250 µM)
0.259

Give recorded relative viability. Cc1cn(-c2cc(NC(=O)c3ccc(C)c(Nc4nccc(-c5cccnc5)n4)c3)cc(C(F)(F)F)c2)cn1 [Nilotinib] + O=C(c1cc(Cc2n[nH]c(=O)c3ccccc23)ccc1F)N1CCN(C(=O)C2CC2)CC1 [Olaparib] (partner 8 µM)
0.384

Dear colleague, please send me the reported relative viability for Cc1cn(-c2cc(NC(=O)c3ccc(C)c(Nc4nccc(-c5cccnc5)n4)c3)cc(C(F)(F)F)c2)cn1 [Nilotinib] + Cc1cc(Nc2cc(N3CCN(C)CC3)nc(Sc3ccc(NC(=O)C4CC4)cc3)n2)n[nH]1 [Tozasertib] (partner 0.1 µM) when you can.
0.16

Note down relative viability recorded for Cc1cn(-c2cc(NC(=O)c3ccc(C)c(Nc4nccc(-c5cccnc5)n4)c3)cc(C(F)(F)F)c2)cn1 [Nilotinib] + Cc1nc(Nc2ncc(C(=O)Nc3c(C)cccc3Cl)s2)cc(N2CCN(CCO)CC2)n1 [Dasatinib] (partner 0.075 µM)
0.424

Return relative viability (reported value) for this molecule: Cc1cn(-c2cc(NC(=O)c3ccc(C)c(Nc4nccc(-c5cccnc5)n4)c3)cc(C(F)(F)F)c2)cn1 [Nilotinib] + CC(C)C[C@H](NC(=O)[C@H](Cc1ccccc1)NC(=O)c1cnccn1)B(O)O [Bortezomib] (partner 0.002 µM)
0.641

Value source: the supplement of paper PMC10307832
